- ASSAY_TARGET: UniProtKB P25099
- Sequence (P25099 whole entry): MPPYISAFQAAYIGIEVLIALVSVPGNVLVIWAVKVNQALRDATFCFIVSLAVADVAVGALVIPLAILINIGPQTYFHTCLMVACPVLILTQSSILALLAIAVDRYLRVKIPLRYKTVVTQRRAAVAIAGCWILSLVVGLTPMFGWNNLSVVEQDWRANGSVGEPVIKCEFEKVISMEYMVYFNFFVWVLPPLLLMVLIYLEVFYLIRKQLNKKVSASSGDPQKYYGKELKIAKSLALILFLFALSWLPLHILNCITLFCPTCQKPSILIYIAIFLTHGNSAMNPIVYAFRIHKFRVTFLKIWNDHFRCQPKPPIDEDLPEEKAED
- ASSAY_INFO: Displacement of specific [3H](R)-PIA binding at Adenosine A1 receptor from rat brain membranes
- Type: cell membranes
- Design: concentration or dose not given beside the values
- STATED_CONDITIONS: Membrane; concentration not given here
Catalogue of inhibition values
QUANTITY_MEASURED: inhibition (%)

compound="CCO/C(O)=C1\\C(C)=NC(c2ccccc2)=C(C(=O)OCc2cc([N+](=O)[O-])cc([N+](=O)[O-])c2)C1C#Cc1ccccc1 (stereo not given)" assay_target="UniProtKB P25099" unit_info=% numeric_value=20
compound="CCO/C(O)=C1\\C(C)=NC(c2ccccc2)=C(C(=O)OCc2ccc(C(F)(F)F)cc2)C1C#Cc1ccccc1 (stereo not given)" assay_target="UniProtKB P25099" unit_info=% numeric_value=32
compound="CCO/C(O)=C1\\C(C)=NC(c2ccccc2)=C(C(=O)OCc2cccc([N+](=O)[O-])c2)C1C#Cc1ccccc1 (stereo not given)" assay_target="UniProtKB P25099" unit_info=% numeric_value=28.2
compound="CCO/C(O)=C1\\C(C)=NC(c2ccccc2)=C(C(=O)OCc2ccc(C(=O)OCC(Cl)(Cl)Cl)cc2)C1C#Cc1ccccc1 (stereo not given)" assay_target="UniProtKB P25099" unit_info=% numeric_value=33
compound="CCOC(=O)C1=C(c2ccccc2)N=C(C)/C(=C(/O)OCc2ccccc2)C1C#Cc1ccccc1 (stereo not given)" assay_target="UniProtKB P25099" unit_info=% numeric_value=24
